target: CyclinB1/CDK1 (Homo sapiens, UniProt P14635); construct: purchased Eurofins, discovery 14-450; test: Fluorescence Polarization (FP) competitive binding assay, Cyclin B1/Cdk1; conditions: 10 nM Cyclin B1/Cdk1, 2 nM FAM probe; average of 2-3 independent experiments; read-out: Cyclin B FP IC50;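 also: fluorescence polarization read after equilibration at room temperature, with IC50 taken from serially diluted dose-response curves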
*1 amine or outer side, *2 acyl side, *3 side chain or, on linkers, in order; H or OH if unused. Where a SMILES comes first, the peptide text is derived from it. Bridges are numbered along the chain shown (N, C = ends). [ ]: non-standard residue; d: D form. The star is where a group is joined. NMePhe(2-(4-MorPh),5-Cl) = CN[C@@H](Cc1cc(Cl)ccc1-c1ccc(N2CCOCC2)cc1)C(=O)O; X165 = CN([C@@H](Cc1cc(Cl)ccc1-c1ccc(N2CCOCC2)c(Cl)c1)C(=O)[*:2])[*:1]; X114 = CN([C@@H](Cc1cc(Cl)ccc1-c1ccc(OCCN2CCOCC2)cc1)C(=O)[*:2])[*:1]; X11 = CN1CCN(c2ccc(-c3ccc(Cl)cc3C[C@@H](C(=O)[*:2])N(C)[*:1])cc2)CC1; X200 = CN([C@@H](Cc1cc(F)ccc1C1CCN(C(=O)C2CC2)CC1)C(=O)[*:2])[*:1]; X18 = CC(=O)N1CCC(=Cc2ccc(Cl)cc2C[C@@H](C(=O)[*:2])N(C)[*:1])CC1; NMehhhLys(Me) = CN([C@@H](CCCCCCCN(C)[*:3])C(=O)[*:2])[*:1]; cBuCO(3,3-F2-1-CF3) = O=C(C1(C(F)(F)F)CC(F)(F)C1)*; Pro(trans-4-F) = O=C(O)[C@@H]1C[C@@H](F)CN1; Gly(cPr) = N[C@H](C(=O)O)C1CC1; X65 = CC1(C(=O)*)CC(F)(F)C1
Measured IC50 values are reported for all entries that follow.
Write down the numeric answer in µM and omit the unit.

// worked examples, IC50 included
compound: CC(C)C[C@@H]1NC(=O)[C@@H](N(C)C(=O)[C@@H](NC(=O)[C@@H]2C[C@@H](F)CN2C(=O)C2(C)CC(F)(F)C2)C2CC2)CCCCCCCN(C)C(=O)[C@H](Cc2cc(Cl)ccc2-c2ccc(N3CCOCC3)cc2)N(C)C1=O [Example 365] (X65-[Pro(trans-4-F)][Gly(cPr)][NMehhhLys(Me)]L[NMePhe(2-(4-MorPh),5-Cl)]; lactam 3-C)
unit-string: µM
IC50: 0.02

compound: CC(C)C[C@@H]1NC(=O)[C@@H](N(C)C(=O)[C@@H](NC(=O)[C@@H]2C[C@@H](F)CN2C(=O)C2(C(F)(F)F)CC(F)(F)C2)C2CC2)CC=CCCCCNC(=O)[C@H](Cc2cc(Cl)cnc2OC2CC2)N(C)C1=O [Example 129]
unit-string: µM
IC50: 0.02

compound: CC(C)C[C@@H]1NC(=O)[C@@H](N(C)C(=O)[C@@H](NC(=O)[C@@H]2C[C@@H](F)CN2C(=O)C2(C(F)(F)F)CC(F)(F)C2)C2CC2)C/C=C\CCCCN(C)C(=O)[C@H](Cc2cc(Cl)ccc2-c2cnn(S(C)(=O)=O)c2)N(C)C1=O
unit-string: µM
IC50: 0.02

compound: CC(C)C[C@@H]1NC(=O)[C@@H](N(C)C(=O)[C@@H](NC(=O)[C@@H]2C[C@@H](F)CN2C(=O)C2(C(F)(F)F)CC(F)(F)C2)C2CC2)CCCCCCCN(C)C(=O)[C@H](Cc2cc(Cl)ccc2-c2ccc(OCCN3CCOCC3)cc2)N(C)C1=O [Example 339] ({cBuCO(3,3-F2-1-CF3)}-[Pro(trans-4-F)][Gly(cPr)][NMehhhLys(Me)]L[X114]; lactam 3-C)
unit-string: µM
IC50: 0.02

compound: CC(=O)N1CCC(=Cc2ccc(Cl)cc2C[C@H]2C(=O)N(C)CCCCCCC[C@H](N(C)C(=O)[C@@H](NC(=O)[C@@H]3C[C@@H](F)CN3C(=O)C3(C(F)(F)F)CC(F)(F)C3)C3CC3)C(=O)N[C@@H](CC(C)C)C(=O)N2C)CC1 [Example 289] ({cBuCO(3,3-F2-1-CF3)}-[Pro(trans-4-F)][Gly(cPr)][NMehhhLys(Me)]L[X18]; lactam 3-C)
unit-string: µM
IC50: 0.02

QUERY: For CC(C)C[C@@H]1NC(=O)[C@@H](N(C)C(=O)[C@@H](NC(=O)[C@@H]2C[C@@H](F)CN2C(=O)C2(C(F)(F)F)CC(F)(F)C2)C2CC2)CCCCCCCN(C)C(=O)[C@H](Cc2cc(F)ccc2C2CCN(C(=O)C3CC3)CC2)N(C)C1=O [Example 101] ({cBuCO(3,3-F2-1-CF3)}-[Pro(trans-4-F)][Gly(cPr)][NMehhhLys(Me)]L[X200]; lactam 3-C) , what is its reported IC50?
RESULT: 0.02

QUERY: # query: IC50 of entry CC(C)C[C@@H]1NC(=O)[C@@H](N(C)C(=O)[C@@H](NC(=O)[C@@H]2C[C@@H](F)CN2C(=O)C2(C(F)(F)F)CC(F)(F)C2)C2CC2)CCCCCCCN(C)C(=O)[C@H](Cc2cc(Cl)ccc2-c2ccc(N3CCN(C)CC3)cc2)N(C)C1=O [Example 336] ({cBuCO(3,3-F2-1-CF3)}-[Pro(trans-4-F)][Gly(cPr)][NMehhhLys(Me)]L[X11]; lactam 3-C)
RESULT: 0.02

QUERY: So what's the measured IC50 for this one? CC(C)C[C@@H]1NC(=O)[C@@H](N(C)C(=O)[C@@H](NC(=O)[C@@H]2C[C@@H](F)CN2C(=O)C2(C(F)(F)F)CC(F)(F)C2)C2CC2)CCCCCCCN(C)C(=O)[C@H](Cc2cc(Cl)ccc2-c2ccc(N3CCOCC3)c(Cl)c2)N(C)C1=O [Example 345] ({cBuCO(3,3-F2-1-CF3)}-[Pro(trans-4-F)][Gly(cPr)][NMehhhLys(Me)]L[X165]; lactam 3-C)
RESULT: 0.02

QUERY: What measured IC50 goes with CC(C)C[C@@H]1NC(=O)[C@@H](N(C)C(=O)[C@@H](NC(=O)[C@@H]2C[C@@H](F)CN2C(=O)C2(C(F)(F)F)CCC2)C2CC2)CC=CCCCCNC(=O)[C@H](Cc2cc(Cl)ccc2Oc2ncccn2)N(C)C1=O (single isomer, unassigned) [Example 156-P2] ?
RESULT: 0.02
